The values you see were collected from patent US20240052052A1.

# pEC50 per entry
- target: T1, human CD24 (human, UniProt P25063 27-59, heavily glycosylated, GPI-anchored (as described in the background))
- T1 construct: whole, on cells; Target of all cell-based FACS assays; also called hCD24; Cluster of differentiation 24
- T1 chain (looked up): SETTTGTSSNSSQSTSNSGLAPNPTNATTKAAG
- test: FACS, MCF7 cells
Scale for pEC50: -log10 of concentration given in mol/L; no unit attached.

Below are worked cases with known answers.
[
  {
    "binder": "ch110D4G4-hIgG4 (antibody, V domains shown, chimeric; also called chAb110D4G4) VH: EVQLQQSGPGLVKPGASVKISCRASGYLFTGYYMNWVKQSPEKSLEWIGEINPNTGDPRYDQKFKAKATLTVDRSSSTAYMHLKSLTSEDSAVYFCARRDYGTSLDYWGQGTTLTVTS VL: DVQITQSPSYLAASPGETITINCRASKSISKYLAWYQEKPGKTNKLLIYSGSTLQSGIPSRFSGSGSGSDFTLTISSLEPEDFAMYYCQQHNEYPLTFGAGTKLELK",
    "result_type": "pEC50",
    "observed_measurement": 8.70
  },
  {
    "binder": "ch56A7E3-hIgG4 (antibody, V domains shown, chimeric) VH: EVQLQQSGPELVKPGASVKIPCKASGYTFTAYNMDWVKQSHGMSLEWIGDINPINGGTIYNQNFEGKATLTVDKSSSTAYLELRSLTSEDTAVYYCARRGSYYYGSSHYALDFWGQGTSVSVSS VL: DIQMTQITSSLSASLGDRVTITCRASQDISNYLNWYQQKPDGTVKLLIYYTSRLLSGVPSRFSGSGSGTDYSLTISNLEQEDIATYFCQQDHTLPRTFGGGTKLEIR",
    "result_type": "pEC50",
    "observed_measurement": 7.08
  }
]

Proceeding to the next binder to report its pEC50.
Prompt: Dear colleague, please send me the reported pEC50 for 71A4F12 (antibody, V domains shown, mouse monoclonal antibody) VH: EVQLQQSGPELVKPGASVKIPCKASGYTFTAYNMDWVKQSHGMSLEWIGDINPNNGDTVYNQNFKGKATLTVDKSSSTAYMELRSLTSEDTAVYYCARRGSYYYGSSHYALDFWGQGTSVSVSS VL: DIQMTQITSSLSASLGNRVTISCRASQDIRNYLNWYQQKPDGTVKLLIYYTSRLLSGVPSRFSGSGSGTDYSLTISNLEQEDIATYFCQQDNSLPRTFGGGTRLEIR when you can.
Response: 6.92
